# TEST SYSTEM: saporin-L1 (Saponaria officinalis)
# Sequence (Q2QEH4 22-280 limits assumed): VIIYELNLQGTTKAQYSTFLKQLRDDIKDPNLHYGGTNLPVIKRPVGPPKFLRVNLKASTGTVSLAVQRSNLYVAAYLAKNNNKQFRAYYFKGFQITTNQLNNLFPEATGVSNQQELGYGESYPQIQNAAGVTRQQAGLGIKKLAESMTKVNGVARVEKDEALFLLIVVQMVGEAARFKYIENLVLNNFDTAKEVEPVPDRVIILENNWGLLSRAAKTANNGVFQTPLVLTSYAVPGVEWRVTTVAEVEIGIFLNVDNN
# PROTOCOL SUMMARY: Competitive inhibition of A-10 RNA
pKi: −log10 of the molar value.
ASSAY METRIC: pKi

• Nc1ncnc2c(CN3C[C@H](CO)[C@@H](O)C3)c[nH]c12 = < 3.30
